Each recorded value in this set is attributed to patent US20260176289A1.

# target-or-system: KRAS-G12D (Homo sapiens, UniProt P01116, G12D)
# Sequence (P01116 with tags, fused parts or gaps isoform P01116-2 G12D): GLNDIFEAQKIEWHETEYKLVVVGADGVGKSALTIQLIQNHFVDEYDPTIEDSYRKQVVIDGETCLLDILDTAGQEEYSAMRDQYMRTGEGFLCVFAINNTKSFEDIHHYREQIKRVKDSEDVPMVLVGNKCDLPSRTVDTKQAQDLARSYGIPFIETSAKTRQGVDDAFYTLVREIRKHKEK
# experiment-summary: SOS-catalyzed nucleotide exchange assay (Procedure A, TR-FRET), KRAS-G12D
# Format: biochemical
# conditions-used: nucleotide exchange, read-out: KRAS G12D GNE IC50
Rule: measured IC50 below 40 nM gets Condition met; anything equal to or greater than 40 nM gets Condition not met.

{"compound": "C[C@H]1CCN1C[C@@]1(COc2nc(N3CCOC[C@@](C)(O)C3)c3c(n2)sc2c(-c4c(C5(F)CC5)c(Cl)cc5[nH]ncc45)nccc23)CC1(F)F [Ex-253]", "group": "Condition met"}
{"compound": "CN1CCC[C@@]2(COc3nc(N4CCOC[C@@](C)(O)C4)c4c(n3)sc3c(-c5c(C6CC6)c(Cl)cc6[nH]ncc56)nccc34)CCC[C@@H]12 [Ex-217]", "group": "Condition met"}
{"compound": "C[C@@]1(O)COCCN(c2nc(OC[C@]3(CN4CCC[C@H]4CF)CC3(F)F)nc3sc4c(-c5c(C6(F)CC6)c(Cl)cc6[nH]ncc56)nccc4c23)C1 [Ex-247]", "group": "Condition not met"}
{"compound": "CCC1(F)c2c(cc3[nH]ncc3c2-c2nccc3c2sc2nc(OC[C@@]45CCCN4C[C@H](F)C5)nc(N4CCOC[C@@](C)(O)C4)c23)CC1(F)F (stereo partly drawn) [Ex-98]", "group": "Condition met"}
{"compound": "Cc1cc2[nH]ncc2c(-c2nccc3c4c(N5CCOC[C@@](C)(O)C5)nc(OC[C@@]56CCCN5C[C@H](F)C6)nc4n(C)c23)c1C(F)(F)F (single isomer, unassigned) [Ex-1]", "group": "Condition not met"}
{"compound": "Cn1c2nc(OC[C@@]34CCCN3C[C@H](F)C4)nc(N3CCOC[C@@](C)(O)C3)c2c2ccnc(-c3c(C(F)F)c(Cl)cc4[nH]nc(C#N)c34)c21 (single isomer, unassigned) [Ex-12]", "group": "Condition not met"}

###

# target-or-system: KRAS-G12V (Homo sapiens, UniProt P01116, G12V)
# Sequence (P01116 with tags, fused parts or gaps isoform P01116-2 G12V): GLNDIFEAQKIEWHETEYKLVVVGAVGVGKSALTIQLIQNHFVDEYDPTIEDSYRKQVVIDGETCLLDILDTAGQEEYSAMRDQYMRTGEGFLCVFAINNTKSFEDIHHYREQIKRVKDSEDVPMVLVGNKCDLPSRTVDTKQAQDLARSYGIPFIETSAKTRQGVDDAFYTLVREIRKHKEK
# experiment-summary: SOS-catalyzed nucleotide exchange assay (Procedure A, TR-FRET), KRAS-G12V
# Type: biochemical
# conditions-used: nucleotide exchange, read-out: KRAS G12V GNE IC50
metric-name: IC50 (nM)

{"compound": "Cc1cc2[nH]ncc2c(-c2nccc3c4c(N5CCC[C@@](C)(O)C5)nc(OC[C@]5(CN(C)C)CC5(F)F)nc4n(C)c23)c1C(F)(F)F [Ex-6]", "target-or-system": "KRAS-G12V (Homo sapiens, UniProt P01116, G12V)", "result-number": 128}
{"compound": "C[C@@]1(O)COCCN(c2nc(OC[C@@]34CCCN3C[C@H](F)C4)nc3sc4c(-c5c(-c6cccs6)c(Cl)cc6[nH]ncc56)nccc4c23)C1 [Ex-143]", "target-or-system": "KRAS-G12V (Homo sapiens, UniProt P01116, G12V)", "result-number": 109}
{"compound": "Cn1c2nc(OC[C@@]34CCCN3C[C@H](F)C4)nc(N3CCOC[C@@](C)(O)C3)c2c2ccnc(-c3c(C(F)F)c(Cl)cc4[nH]ncc34)c21 (single isomer, unassigned) [Ex-11]", "target-or-system": "KRAS-G12V (Homo sapiens, UniProt P01116, G12V)", "result-number": 125}
